All figures here come from patent US20200339544A1.

# protocol text: General cytotoxicity on HepG2 cells
# Assay type: cell-based
# measurement parameters: human; general cytotoxicity, HepG2 cells, 72 hours, average of several tests
In this section, each of the molecules is paired with its reported CC50 at 72 h.

{"molecule": "C=CC(=O)Nc1cc(Nc2nccc(C(=O)c3ccc(N4CC[C@@H](OC)C4)cc3)n2)c(OC)cc1N(C)CCN(C)C [EGFR_3365_115]", "CC50 at 72 h": "22 µM"}
{"molecule": "C=CC(=O)Nc1cc(Nc2nccc(C(=O)c3ccc(N(C)C)cc3)n2)c(OC)cc1N(C)CCN(C)C [EGFR_3365_73]", "CC50 at 72 h": "35.6 µM"}
{"molecule": "C=CC(=O)Nc1cc(Nc2nccc(C(=O)c3ccc(N(CC)CC)cc3)n2)c(OC)cc1N(C)CCN(C)C [EGFR_3365_72]", "CC50 at 72 h": "16.2 µM"}
{"molecule": "C=CC(=O)Nc1cc(Nc2nccc(C(=O)c3c(OC)cc(OC)cc3OC)n2)c(OC)cc1N(C)CCN(C)C [EGFR_3365_124]", "CC50 at 72 h": "> 50 µM"}
{"molecule": "C=CC(=O)Nc1cc(Nc2nccc(C(=O)c3ccccc3C(F)(F)F)n2)c(OC)cc1N(C)CCN(C)C [EGFR_3365]", "CC50 at 72 h": "25.4 µM"}
{"molecule": "C=CC(=O)Nc1cc(Nc2cc(C(=O)c3ccc(N4CCOCC4)cc3)ccn2)c(OC)cc1N(C)CCN(C)C.O=C(O)C(F)(F)F [EGFR_3365_5, 2,2,2-trifluoroacetate]", "CC50 at 72 h": "17.7 µM"}
{"molecule": "C=CC(=O)Nc1cc(Nc2cc(C(=O)c3ccc(N(CC)CC)cc3)ccn2)c(OC)cc1N(C)CCN(C)C", "CC50 at 72 h": "7.82 µM"}
